EC50 values by entry
- assay_target: T1, human TIGIT expressed on cells (human, UniProt Q495A1 22-244)
- T1 construct: HEK 293 cells stably expressing human TIGIT, primary human T cells or Jurkat effector cells; the cell is named under assay; also called Human TIGIT HEK
- T1 sequence: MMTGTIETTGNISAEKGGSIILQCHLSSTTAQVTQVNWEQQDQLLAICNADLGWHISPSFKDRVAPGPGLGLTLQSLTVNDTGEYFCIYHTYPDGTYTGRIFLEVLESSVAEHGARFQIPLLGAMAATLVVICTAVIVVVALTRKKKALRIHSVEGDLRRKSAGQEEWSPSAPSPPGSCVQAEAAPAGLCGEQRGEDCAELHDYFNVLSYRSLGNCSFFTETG
- assay_procedure: flow cytometry titration, HEK 293 cells expressing human TIGIT

| binder | EC50 [µg/mL] |
| --- | --- |
| Clone 16 (antibody, V domains shown, Fully human IgG produced in yeast) VH: QVQLVQSGAEVKKPGSSVKVSCKASGGTFSSYAISWVRQAPGQGLEWMGGIIPIFGTASYAQKFQGRVTITADESTSTAYMELSSLRSEDTAVYYCARQSTWHKLYGTDVWGQGTTVTVSS VL: DIQMTQSPSSVSASVGDRVTITCRASQGISSWLAWYQQKPGKAPKLLIYAASSLQSGVPSRFSGSGSGTDFTLTISSLQPEDFATYYCQQGDSLPPTFGGGTKVEIK | 0.07 |
| Clone 25 (antibody, V domains shown, Fully human IgG produced in yeast; also called anti-TIGIT clone 25) VH: QVQLVQSGAEVKKPGASVKVSCKASGYTFTSYAISWVRQAPGQGLEWMGWISAYNGNTNYAQKLQGRVTMTTDTSTSTAYMELRSLRSDDTAVYYCARDLSSFWSGDVLGAFDIWGQGTMVTVSS VL: DIQMTQSPSSLSASVGDRVTITCRASQSISSYLNWYQQKPGKAPKLLIYAASSLQSGVPSRFSGSGSGTDFTLTISSLQPEDFATYYCQQSVPPRTFGGGTKVEIK | 0.14 |
| Clone 54 (antibody, V domains shown, Fully human IgG produced in yeast) VH: QVQLVQSGAEVKKPGASVKVSCKASGYTFTSYYMHWVRQAPGQGLEWMGIINPSGGSTSYAQKFQGRVTMTRDTSTSTVYMELSSLRSEDTAVYYCARASDSYGVGLYYGMDVWGQGTTVTVSS VL: EIVLTQSPGTLSLSPGERATLSCRASQSVRSSYLAWYQQKPGQAPRLLIYGASSRATGIPDRFSGSGSGTDFTLTISRLEPEDFAVYYCQQYYVSPLTFGGGTKVEIK | 0.11 |
